targetDesc: Neu5Ac(a2-3)Gal(b1-4)[Fuc(a1-3)]GlcNAc(b1-3)Gal(b1-4)GlcNAc
protocolNotes: glycan array binding signal (z-score within array); higher = stronger binding
experimentalParameters: glycan notation: IUPAC condensed, linker removed
The sample as a whole holds a higher share of the strongest signals than the screen did.
readoutType: glycan array binding signal (z-score)
Give bare numbers.

Hi there! I need glycan array binding signal (z-score) for each item below, if you can.
1. 3FTT (Staphylococcus aureus), Q5HCZ5 (protein) MTEKEKMLAEKWYDANFDQYLINERARAKDICFELNHTRPSATNKRKELIDQLFQTTTDNVSISIPFDTDYGWNVKLGKNVYVNTNCYFMDGGQITIGDNVFIGPNCGFYTATHPLNFHHRNEGFEKAGPIHIGSNTWFGGHVAVLPGVTIGEGSVIGAGSVVTKDIPPHSLAVGNPCKVVRKIDNDLPSETLNDETIK
2. Fm1D (Escherichia coli) (protein) FSCNVDGGSSIGAGTTSVYVNLDPVIQPGQNLVVDLSQHISCWNDYGGWYDTDHINLVQGSAFAGSLQSYKGSLYWNNVTYPFPLTTNTNVLDIGDKTPMPLPLKLYITPVGAAGGVVIKAGEVIARIHMYKIATLGSGNPRNFTWNIISNNSVVMPTHHHHHH
3. Epa1 (Candida glabrata) (protein) MGSSHHHHHHSSGLVPRGSHMTSSNDISLASKDPTTFPLGCSPDITTPKKGLSMELYSYDFRKKGSYPCWDAAYLDPNYPRTGYKSHRLLAKVDGVTGNINFYYHATKGCTPQLGHLPASYNYPKPLTMTNFTMLLYGYFRPKVTGFHTFTISADDLLFVNFGAGNAFDCCRRDSSADHFGNYQAYAIWGSKTAKDELTVHLDAGVYYPIRLFYNNREYDGALSFTFKTESNENTVSDFSEYFFSLDDTEEGCPGLISYD

RESULT:
1. 0.162
2. -0.14
3. -0.214
